- experimentalSystem: D-CGRP (biotinylated, all-D alpha-calcitonin gene-related peptide) (Rattus norvegicus) (UniProt P01256)
- Sequence: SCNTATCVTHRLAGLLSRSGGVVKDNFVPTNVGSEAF
- details: 2'-F pyrimidines; 666 with G20-A21 excised (in analogy to clone 732)
reportedMetric: Kd
Give the figure together with its unit, number first.

Exam item: Item GGAGCUCAGCCUUCACUGCAGUGACGCACGUAUGAUAGUUUCCAUUUUGGACUCCUGGGCACCACGGUCGGAUCCAC [clone 732] has what recorded Kd?
Marked response: 20000 nM
